- target.system: Free fatty acid receptor 1 (Homo sapiens, UniProt O14842)
- Sequence (O14842 whole entry): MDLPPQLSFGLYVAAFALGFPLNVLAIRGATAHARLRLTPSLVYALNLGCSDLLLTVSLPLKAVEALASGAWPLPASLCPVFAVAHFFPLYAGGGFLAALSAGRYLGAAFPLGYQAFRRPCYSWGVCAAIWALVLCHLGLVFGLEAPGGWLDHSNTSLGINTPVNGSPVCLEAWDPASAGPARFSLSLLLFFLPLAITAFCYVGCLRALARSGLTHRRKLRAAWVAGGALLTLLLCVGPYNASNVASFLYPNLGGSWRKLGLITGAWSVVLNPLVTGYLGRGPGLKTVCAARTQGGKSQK
- protocol.summary: Agonist activity at human FFA1 receptor transfected in human 1321N1 cells by calcium mobilization assay relative to TUG-20
- Format: functional, cell-based
Below, each entry is listed with its recorded Efficacy.

>  <structure>
N#CCCc1ccccc1C#Cc1ccc(CCC(=O)O)c(F)c1

>  <u>
%

>  <Efficacy>
97

$$$$
>  <structure>
CS(=O)(=O)CCOCc1cccc(C#Cc2ccc(CCC(=O)O)c(F)c2)c1

>  <u>
%

>  <Efficacy>
93

$$$$
>  <structure>
O=C(O)CCc1ccc(C#Cc2ccccc2)cn1

>  <u>
%

>  <Efficacy>
92

$$$$
>  <structure>
N#CCc1cccc(C#Cc2ccc(CCC(=O)O)c(F)c2)c1

>  <u>
%

>  <Efficacy>
104

$$$$
>  <structure>
O=C(O)CCc1ccc(C#Cc2cc(Cl)cc(Cl)c2)cc1F

>  <u>
%

>  <Efficacy>
99

$$$$
>  <structure>
O=C(O)CCc1c(F)cc(C#Cc2ccccc2)cc1F

>  <u>
%

>  <Efficacy>
108

$$$$
>  <structure>
CS(=O)(=O)Cc1ccccc1C#Cc1ccc(CCC(=O)O)c(F)c1

>  <u>
%

>  <Efficacy>
97

$$$$
>  <structure>
Cc1cccc(C#Cc2ccc(CCC(=O)O)c(F)c2)c1

>  <u>
%

>  <Efficacy>
100

$$$$
>  <structure>
O=C(O)CCc1ccc(C#Cc2ccccc2)nc1

>  <u>
%

>  <Efficacy>
99

$$$$
>  <structure>
CS(=O)(=O)Cc1cccc(C#Cc2ccc(CCC(=O)O)c(F)c2)c1

>  <u>
%

>  <Efficacy>
104

$$$$
>  <structure>
CS(=O)(=O)CCCOCc1ccccc1C#Cc1ccc(CCC(=O)O)c(F)c1

>  <u>
%

>  <Efficacy>
92

$$$$
>  <structure>
O=C(O)CCc1ccc(C#Cc2ccccc2)c(F)c1

>  <u>
%

>  <Efficacy>
100

$$$$

All figures here come from ChEMBL document CHEMBL2384913.
